Biological target: SARS-CoV-2 spike protein trimer, Gamma (P.1) variant (SARS-CoV-2, UniProt P0DTC2 16-1213)
Test: ELISA, purified IgG
experimental-endpoint: binding result

SEQ ID NO 18 (antibody, V domains shown, As m4; also called selected clone from LxC libraries; LxC clone) VH: EVQLVESGGGLVQPGGSLRLSCTVSGFSLSTYAMSWVRQAPGKGLEWIGVIASNADTYYASWAKGRFTISRDNSKNTLYLQMNSLRAEDTAVYYCARHPGSAGYGYAVYYAMDPWGQGTLVTVSS VL: DIQMTQSPSSLSASVGDRVTITCKASEDIRYGLNWYQQKPGKAPKLLIYGGSYLRWGVPSRFSGSGSGTDYTLTISSLQPEDFATYYCQQGYRVPIRFGGGTKVEIK = binds
